Assignment: determine reported abundance fitness for the given variants.
B1: Lysine-specific demethylase 5C, residues 319 to 373; numbered along this chain, P41229 (parent)
chain: AQFIESYVCRMCSRGDEDDKLLLCDGCDDNYHIFCLLPPLPEIPKGVWRCPKCVM

Variants of: B1
Procedure Details: abundance fitness (aPCA) (normalised: wild type 0, dead -1); higher = more abundant; growth selection in yeast, the domain comes from the species named
Measurement Parameters: Homo sapiens
A bare number is all that is needed in reply.

Input line: Can you share its abundance fitness? I mean this variant: D19H
Output line: -0.032

Input line: Can you share its abundance fitness? I mean this variant: C27A
Output line: -0.921

Input line: Can you share its abundance fitness? I mean this variant: C9Y
Output line: -0.955

Input line: Can you share its abundance fitness? I mean this variant: G26L
Output line: -0.071

Input line: Can you share its abundance fitness? I mean this variant: E17F
Output line: -0.062

Input line: Can you share its abundance fitness? I mean this variant: F34N
Output line: 0.095

Input line: Can you share its abundance fitness? I mean this variant: C12M
Output line: -0.669

Input line: Can you share its abundance fitness? I mean this variant: C12Y
Output line: -0.87

Input line: Can you share its abundance fitness? I mean this variant: G26S
Output line: -0.159

Input line: Can you share its abundance fitness? I mean this variant: V8W
Output line: -0.247

Input line: Can you share its abundance fitness? I mean this variant: D18K
Output line: 0.184

Input line: Can you share its abundance fitness? I mean this variant: M11N
Output line: 0.045

Input line: Can you share its abundance fitness? I mean this variant: C9V
Output line: -0.792

Input line: Can you share its abundance fitness? I mean this variant: M11L
Output line: -0.264

Input line: Can you share its abundance fitness? I mean this variant: G26C
Output line: 0.017

Input line: Can you share its abundance fitness? I mean this variant: R10S
Output line: -0.28

Input line: Can you share its abundance fitness? I mean this variant: D29V
Output line: -0.228

Input line: Can you share its abundance fitness? I mean this variant: V8G
Output line: -0.106

Input line: Can you share its abundance fitness? I mean this variant: F34W
Output line: -0.087

Input line: Can you share its abundance fitness? I mean this variant: D29Y
Output line: 0.036

Input line: Can you share its abundance fitness? I mean this variant: Y31P
Output line: -0.776

Input line: Can you share its abundance fitness? I mean this variant: Y7K
Output line: 0.155

Input line: Can you share its abundance fitness? I mean this variant: M11Q
Output line: 0.045

Input line: Can you share its abundance fitness? I mean this variant: I4M
Output line: 0.115

Input line: Can you share its abundance fitness? I mean this variant: G26N
Output line: -0.105

Input line: Can you share its abundance fitness? I mean this variant: D18G
Output line: 0.183

Input line: Can you share its abundance fitness? I mean this variant: M11C
Output line: -0.085

Input line: Can you share its abundance fitness? I mean this variant: F34V
Output line: -0.078

Input line: Can you share its abundance fitness? I mean this variant: S6E
Output line: -0.08

Input line: Can you share its abundance fitness? I mean this variant: Q2E
Output line: -0.258

Input line: Can you share its abundance fitness? I mean this variant: S6I
Output line: -0.445

Input line: Can you share its abundance fitness? I mean this variant: C9A
Output line: -0.797

Input line: Can you share its abundance fitness? I mean this variant: V8P
Output line: -0.12

Input line: Can you share its abundance fitness? I mean this variant: H32R
Output line: -0.675

Input line: Can you share its abundance fitness? I mean this variant: H32Y
Output line: -0.972

Input line: Can you share its abundance fitness? I mean this variant: D16R
Output line: -0.026

Input line: Can you share its abundance fitness? I mean this variant: V8H
Output line: -0.11

Input line: Can you share its abundance fitness? I mean this variant: F3Y
Output line: -0.043

Input line: Can you share its abundance fitness? I mean this variant: G26Q
Output line: -0.129

Input line: Can you share its abundance fitness? I mean this variant: L22W
Output line: -0.838

Input line: Can you share its abundance fitness? I mean this variant: F34G
Output line: 0.046

Input line: Can you share its abundance fitness? I mean this variant: S6A
Output line: -0.068

Input line: Can you share its abundance fitness? I mean this variant: Y7R
Output line: 0.14

Input line: Can you share its abundance fitness? I mean this variant: K20Y
Output line: -0.035

Input line: Can you share its abundance fitness? I mean this variant: C35P
Output line: -0.638

Input line: Can you share its abundance fitness? I mean this variant: E5Q
Output line: 0.02

Input line: Can you share its abundance fitness? I mean this variant: H32S
Output line: -0.984

Input line: Can you share its abundance fitness? I mean this variant: E17D
Output line: 0.078

Input line: Can you share its abundance fitness? I mean this variant: E5D
Output line: 0.054

Input line: Can you share its abundance fitness? I mean this variant: F3L
Output line: 0.005

Input line: Can you share its abundance fitness? I mean this variant: L22A
Output line: -0.243

Input line: Can you share its abundance fitness? I mean this variant: A1M
Output line: 0.135

Input line: Can you share its abundance fitness? I mean this variant: N30R
Output line: 0.071

Input line: Can you share its abundance fitness? I mean this variant: S13H
Output line: -0.239

Input line: Can you share its abundance fitness? I mean this variant: D16N
Output line: 0.131

Input line: Can you share its abundance fitness? I mean this variant: C27R
Output line: -0.759

Input line: Can you share its abundance fitness? I mean this variant: R14S
Output line: 0.188

Input line: Can you share its abundance fitness? I mean this variant: F3G
Output line: 0.022

Input line: Can you share its abundance fitness? I mean this variant: I33R
Output line: -0.381

Input line: Can you share its abundance fitness? I mean this variant: S6D
Output line: -0.523

Input line: Can you share its abundance fitness? I mean this variant: D19A
Output line: 0.063

Input line: Can you share its abundance fitness? I mean this variant: F34Y
Output line: 0.191

Input line: Can you share its abundance fitness? I mean this variant: V8K
Output line: 0.254

Input line: Can you share its abundance fitness? I mean this variant: L22Y
Output line: -1.07

Input line: Can you share its abundance fitness? I mean this variant: V8Q
Output line: -0.11

Input line: Can you share its abundance fitness? I mean this variant: S13R
Output line: 0.007

Input line: Can you share its abundance fitness? I mean this variant: I4V
Output line: -0.019

Input line: Can you share its abundance fitness? I mean this variant: K20Q
Output line: -0.093

Input line: Can you share its abundance fitness? I mean this variant: E17P
Output line: -0.1

Input line: Can you share its abundance fitness? I mean this variant: D18R
Output line: 0.087

Input line: Can you share its abundance fitness? I mean this variant: C27T
Output line: -0.694

Input line: Can you share its abundance fitness? I mean this variant: C35I
Output line: -1

Input line: Can you share its abundance fitness? I mean this variant: C35K
Output line: -0.947
